# Test system: T47D human breast carcinoma cells
# Assay Explanation: Assay to Demonstrate Ability to Increase Breast Cell Proliferation ([3H]-thymidine incorporation)
# Type: cell-based
# Condition Summary: at the concentration of the same table line, control level set at 100%
% control (magnitude of maximal deviation from control) of 90% or higher: 1.0. Under 90%: 0.0.

CC1CC2c3ccc(F)cc3CC2(C)Cc2cc(Oc3nnnn3-c3ccccc3)ccc21 (centres unmarked) : 1.0
COc1cc2c(cc1[N+](=O)[O-])C(C)C(O[N+](=O)[O-])C1c3ccccc3CC1(C)C2 (centres unmarked) : 0.0
CC1CC2c3ccccc3CC2(C)Cc2cc(F)ccc21 (centres unmarked) : 1.0
CCC[C@]12Cc3ccccc3C1=C[C@@H](C)c1ccc(N)cc1C2 (relative stereo) : 1.0

Next item in the queue.
Reported % control (magnitude of maximal deviation from control) reaches at least 90% for COc1ccc2c(c1)CC1(C)Cc3cccc(OC(C)=O)c3CC=C21 (centres unmarked) ?
1.0

---

# Test system: T47D human breast carcinoma cells
# Assay Explanation: Assay to Demonstrate Ability to Increase Breast Cell Proliferation ([3H]-thymidine incorporation)
# Assay type: cell-based
# Condition Summary: at the concentration of the same table line, control level set at 100%
Parameter: % control (magnitude of maximal deviation from control). Scope: all listed entries.
Write the value in % as a bare number.

CCC12Cc3ccccc3C(C)CC1c1ccccc1C2 (stereo not drawn) [Compound 53] : 50
COc1ccc2c(c1)CC1(C)Cc3cc(F)ccc3C1C(O)C2C (stereo not drawn) [Compound 45] : 191
Cc1ccc2c(c1)CC1(C)Cc3ccccc3C1=CC2 (stereo not drawn) [Compound 70] : 173
CCC12Cc3cc(OC)ccc3CC=C1c1ccccc1C2 (stereo not drawn) [Compound 43] : 151
CC(=O)Oc1cccc2c1CC=C1c3ccc(F)cc3CC1(C)C2 (stereo not drawn) [Compound 113] : 470

// % control (magnitude of maximal deviation from control) lookup, key: CCC[C@]12Cc3ccccc3C1=C[C@@H](C)c1ccc(OC)cc1C2 (relative stereo) [Compound 38]
189

Now give it for COc1ccc2c(c1)CC1(C)Cc3cc(F)ccc3C1=CC2C (stereo not drawn) [Compound 30] too.
204

Now give it for CCCC12Cc3cc(OC)ccc3CC=C1c1ccccc1C2 (stereo not drawn) [Compound 27] too.
224

Now give it for COc1ccc2c(c1)CC1(C)Cc3cc(OC)ccc3C1C(O)C2C (stereo not drawn) [Compound 78] too.
112

---

# Measured On: UniProt P06186
Metric: pIC50
Units for pIC50: none; it is -log10 of a concentration expressed in mol/L.

# annotated cases, reported pIC50 shown
COc1cc2c(cc1[N+](=O)[O-])C(C)C(O)C1c3ccccc3CC1(C)C2 (centres unmarked) : 6.92
CCOP(=O)(OCC)Oc1ccc2c(c1)CC1(C)Cc3cc(F)ccc3C1CC2C (centres unmarked) : 7.14
CC(=O)Oc1cccc2c1CC=C1c3ccc(F)cc3CC1(C)C2 (centres unmarked) : 8.22

// pIC50 lookup, key: CCC[C@]12Cc3ccccc3C1=C[C@@H](C)c1ccc(NC(C)=O)cc1C2 (relative stereo)
6.79

Now give it for CC(=O)Nc1cc2c(cc1[N+](=O)[O-])C(C)CC1c3ccccc3CC1(C)C2 (centres unmarked) too.
6.94

Now give it for COc1cc2c(cc1[N+](=O)[O-])C(C)C(O[N+](=O)[O-])C1c3ccccc3CC1(C)C2 (centres unmarked) too.
7.09

Now give it for COc1cc2c(cc1[N+](=O)[O-])C(C)CC1c3ccc(F)cc3CC1(C)C2 (centres unmarked) [Compound 65, Hydrate] too.
8.05

Now give it for Cc1ccc2c(c1)CC1(C)Cc3ccccc3C1=CC2 (centres unmarked) too.
7.38

Now give it for COc1ccc2c(c1)CC1(C)Cc3cc(F)ccc3C1=CC2C (centres unmarked) too.
8.22

Now give it for CC1CC2c3ccc(F)cc3CC2(C)Cc2cc(Oc3nnnn3-c3ccccc3)ccc21 (centres unmarked) too.
7.26

Now give it for CC(=O)Nc1ccc2c(c1)CC1(C)Cc3ccccc3C1=CC2 (centres unmarked) too.
5.75

Now give it for COc1ccc2c(c1)C[C@@]1(C)Cc3cc(F)ccc3[C@H]1C[C@H]2C (relative stereo) too.
7.60

Now give it for CC(=O)Nc1ccc2c(c1)CC1(C)Cc3ccccc3C1=CC2C (centres unmarked) too.
5.71

Now give it for CCC[C@]12Cc3cc(F)ccc3[C@H]1CCc1c(cccc1OC)C2 (relative stereo) too.
7.00

Now give it for CCCC12Cc3cc(O)ccc3CCC1c1ccccc1C2 (centres unmarked) too.
7.29

Now give it for CCCC12Cc3cc(OC)ccc3C(C)CC1c1ccccc1C2 (centres unmarked) too.
6.74

Now give it for COc1ccc2c(c1[N+](=O)[O-])CC1(C)Cc3ccccc3C1C(O[N+](=O)[O-])C2C (centres unmarked) too.
7.00

Now give it for CC12Cc3ccccc3C1CCc1c(N)cccc1C2 (centres unmarked) too.
7.47

Now give it for CC1CC2c3ccccc3CC2(C)Cc2c1cc([N+](=O)[O-])c(O)c2[N+](=O)[O-] (centres unmarked) too.
6.21

Now give it for CC1CC2c3ccccc3CC2(C)Cc2ccccc21 (centres unmarked) too.
7.49

Now give it for CCC[C@@]12Cc3cc(OC)ccc3CC[C@@H]1c1ccc(OC)cc1C2 (relative stereo) too.
6.36

---

# Measured On: Progestin Receptor (Oryctolagus cuniculus)
# Sequence (P06186 whole entry): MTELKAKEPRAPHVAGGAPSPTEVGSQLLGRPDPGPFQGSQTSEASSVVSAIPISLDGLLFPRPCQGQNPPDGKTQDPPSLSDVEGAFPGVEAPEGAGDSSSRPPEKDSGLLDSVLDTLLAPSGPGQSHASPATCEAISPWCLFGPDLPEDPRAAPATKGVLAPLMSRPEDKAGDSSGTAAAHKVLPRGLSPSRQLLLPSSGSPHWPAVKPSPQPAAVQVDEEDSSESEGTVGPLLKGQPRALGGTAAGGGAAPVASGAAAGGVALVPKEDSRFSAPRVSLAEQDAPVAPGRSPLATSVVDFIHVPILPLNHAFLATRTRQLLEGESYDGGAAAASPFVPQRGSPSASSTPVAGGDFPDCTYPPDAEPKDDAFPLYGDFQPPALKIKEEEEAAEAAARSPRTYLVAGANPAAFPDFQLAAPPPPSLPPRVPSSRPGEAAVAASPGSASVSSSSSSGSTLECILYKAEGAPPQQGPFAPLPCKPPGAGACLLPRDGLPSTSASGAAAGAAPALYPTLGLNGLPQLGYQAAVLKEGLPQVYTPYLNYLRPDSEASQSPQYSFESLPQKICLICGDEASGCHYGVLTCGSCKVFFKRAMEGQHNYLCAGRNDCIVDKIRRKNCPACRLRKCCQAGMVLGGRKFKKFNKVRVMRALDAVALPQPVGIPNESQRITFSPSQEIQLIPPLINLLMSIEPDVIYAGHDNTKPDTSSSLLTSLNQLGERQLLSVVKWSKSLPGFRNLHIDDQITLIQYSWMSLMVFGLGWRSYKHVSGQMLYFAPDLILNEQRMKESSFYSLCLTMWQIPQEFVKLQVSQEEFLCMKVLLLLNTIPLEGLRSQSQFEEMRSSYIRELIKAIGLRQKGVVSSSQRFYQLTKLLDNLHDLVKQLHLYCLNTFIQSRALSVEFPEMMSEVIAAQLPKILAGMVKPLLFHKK
Parameter: pIC50. Scope: all listed entries.
Units for pIC50: none; it is -log10 of a concentration expressed in mol/L.

# annotated cases, reported pIC50 shown
CCCC12Cc3cc(F)ccc3C1=CCc1c(cccc1OC)C2 (centres unmarked) : 7.47
CCC[C@]12Cc3ccccc3C1=C[C@@H](C)c1ccc(N)cc1C2 (relative stereo) : 7.72
CC[C@]12Cc3ccccc3C1C[C@@H](C)c1ccc(O)cc1C2 (some centres unmarked) : 7.19
CC1CC2c3ccccc3CC2(C)Cc2cc(N)ccc21 (centres unmarked) : 6.86

// pIC50 lookup, key: CC1CC2c3ccccc3CC2(C)Cc2cc(F)ccc21 (centres unmarked)
7.47
